System: Streptococcus pneumoniae
protocol_text: Antibacterial activity against erythromycin-resistant Streptococcus pneumoniae A22072 expressing mef gene by the broth microdilution method
Type: functional
The reader will find reported MIC values listed item by item below.
Quick note: number first, unit second.

// known answers, use as guide
| chem_smiles | MIC |
| --- | --- |
| CC[C@H]1OC(=O)[C@H](C)[C@@H](O[C@H]2C[C@@](C)(OC)[C@@H](O)[C@H](C)O2)[C@H](C)[C@@H](O[C@@H]2O[C@H](C)C[C@H](N(C)C)[C@H]2O)[C@](C)(O)C[C@@H](C)C(=O)[C@H](C)[C@@H](O)[C@]1(C)O | 8 µg/mL |
| CC[C@H]1OC(=O)[C@H](C)[C@@H](O[C@H]2C[C@@](C)(OC)[C@@H](OC(=O)NCCCCNC(=O)c3ccc(C)cc3)[C@H](C)O2)[C@H](C)[C@@H](O[C@@H]2O[C@H](C)C[C@H](N(C)C)[C@H]2O)[C@](C)(O)C[C@@H](C)CN(C)[C@H](C)[C@H]2OC(=O)O[C@@]21C | 1 µg/mL |
| CC[C@H]1OC(=O)[C@H](C)[C@@H](O[C@H]2C[C@@](C)(OC)[C@@H](OC(=O)NNC(=O)c3ccc(Cl)cc3Cl)[C@H](C)O2)[C@H](C)[C@@H](O[C@@H]2O[C@H](C)C[C@H](N(C)C)[C@H]2O)[C@](C)(O)C[C@@H](C)CN(C)[C@H](C)[C@H]2OC(=O)O[C@@]21C | 0.25 µg/mL |

With those in mind, consider the next compound.
In: Field request: MIC | item: CC[C@H]1OC(=O)[C@H](C)[C@@H](O[C@H]2C[C@@](C)(OC)[C@@H](OC(=O)NCCNC(=O)c3ccc(F)cc3)[C@H](C)O2)[C@H](C)[C@@H](O[C@@H]2O[C@H](C)C[C@H](N(C)C)[C@H]2O)[C@](C)(O)C[C@@H](C)CN(C)[C@H](C)[C@H]2OC(=O)O[C@@]21C
Out: 1 µg/mL

###

Tested on: Staphylococcus aureus
protocol_text: Antibacterial activity against […] Staphylococcus aureus ATCC 29213 by the broth microdilution method
Assay type: functional
measurement_kind: MIC (µg/mL)
Hi! Could you send only the number? It should be in µg/mL, unit omitted.

| chem_smiles | measurement_kind | recorded_measurement |
| --- | --- | --- |
| CC[C@H]1OC(=O)[C@H](C)[C@@H](O[C@H]2C[C@@](C)(OC)[C@@H](OC(=O)NNC(=O)c3cc([N+](=O)[O-])cc([N+](=O)[O-])c3)[C@H](C)O2)[C@H](C)[C@@H](O[C@@H]2O[C@H](C)C[C@H](N(C)C)[C@H]2O)[C@](C)(O)C[C@@H](C)CN(C)[C@H](C)[C@H]2OC(=O)O[C@@]21C | MIC | 4 |

In: Field request: MIC | item: CC[C@H]1OC(=O)[C@H](C)[C@@H](O[C@H]2C[C@@](C)(OC)[C@@H](O)[C@H](C)O2)[C@H](C)[C@@H](O[C@@H]2O[C@H](C)C[C@H](N(C)C)[C@H]2O)[C@](C)(O)C[C@@H](C)C(=O)[C@H](C)[C@@H](O)[C@]1(C)O
Out: 0.12

###

The reader will find reported MIC values listed item by item below.
Test system: Streptococcus pneumoniae
protocol_text: Antibacterial activity against erythromycin-resistant Streptococcus pneumoniae AB11 expressing erm and mef gene by the broth microdilution method
Assay type: functional
Hi! Could you send only the number? It should be in µg/mL, unit omitted.

// known answers, use as guide
| chem_smiles | MIC [µg/mL] |
| --- | --- |
| CC[C@H]1OC(=O)[C@H](C)[C@@H](O[C@H]2C[C@@](C)(OC)[C@@H](OC(=O)NCCCCNC(=O)c3ccc(OC)c(OC)c3)[C@H](C)O2)[C@H](C)[C@@H](O[C@@H]2O[C@H](C)C[C@H](N(C)C)[C@H]2O)[C@](C)(O)C[C@@H](C)CN(C)[C@H](C)[C@H]2OC(=O)O[C@@]21C | 32 |
| CC[C@H]1OC(=O)[C@H](C)[C@@H](O[C@H]2C[C@@](C)(OC)[C@@H](OC(=O)NCCNC(=O)c3ccccc3OC)[C@H](C)O2)[C@H](C)[C@@H](O[C@@H]2O[C@H](C)C[C@H](N(C)C)[C@H]2O)[C@](C)(O)C[C@@H](C)CN(C)[C@H](C)[C@H]2OC(=O)O[C@@]21C | 64 |
| CC[C@H]1OC(=O)[C@H](C)[C@@H](O[C@H]2C[C@@](C)(OC)[C@@H](OC(=O)NCCCCNC(=O)c3cc([N+](=O)[O-])cc([N+](=O)[O-])c3)[C@H](C)O2)[C@H](C)[C@@H](O[C@@H]2O[C@H](C)C[C@H](N(C)C)[C@H]2O)[C@](C)(O)C[C@@H](C)CN(C)[C@H](C)[C@H]2OC(=O)O[C@@]21C | 8 |

In: Field request: MIC | item: CC[C@H]1OC(=O)[C@H](C)[C@@H](O[C@H]2C[C@@](C)(OC)[C@@H](OC(=O)NNC(=O)c3ccc(C)cc3)[C@H](C)O2)[C@H](C)[C@@H](O[C@@H]2O[C@H](C)C[C@H](N(C)C)[C@H]2O)[C@](C)(O)C[C@@H](C)CN(C)[C@H](C)[C@H]2OC(=O)O[C@@]21C
Out: 16

In: Field request: MIC | item: CC[C@H]1OC(=O)[C@H](C)[C@@H](O[C@H]2C[C@@](C)(OC)[C@@H](O)[C@H](C)O2)[C@H](C)[C@@H](O[C@@H]2O[C@H](C)C[C@H](N(C)C)[C@H]2O)[C@](C)(O)C[C@@H](C)C(=O)[C@H](C)[C@@H](O)[C@]1(C)O
Out: 256
